System: Bemisia tabaci
assay-procedure: Biotype susceptibility ratio, ratio of LC50 for female adult Bemisia tabaci biotype Q (sweet potato whitefly) to LC50 for female adult Bemisia tabaci biotype B
Format: functional
metric: RatioLC50
Give bare numbers.

Would you please look over these solved cases?
Form field RatioLC50, entry CC1(C)C(C=C(Cl)Cl)C1C(=O)OC(C#N)c1cccc(Oc2ccccc2)c1 (stereo not drawn) [ALPHA-CYPERMETHRIN] : 1.4

Form field RatioLC50, entry COP(=O)(OC)OC=C(Cl)Cl [DICHLORVOS] : 1.2

Then this molecule:
Form field RatioLC50, entry CCN(CC)c1nc(C)cc(OP(=S)(OC)OC)n1 [PIRIMIPHOS METHYL] : 1.3

###

System: Bemisia tabaci
assay-procedure: Adulticidal activity against female Bemisia tabaci biotype B (sweet potato whitefly) in cucumber leaves assessed as residual contact toxicity treated for 30 secs before adult insect infestation measured after 24 hr by leaf dip bioassay
Type: functional
run-parameters: foliar
// classify: if (LC50 < 200 µg/mL) Satisfied else Not satisfied

Answered examples (3):
[ask] is_below(LC50, 200 µg/mL) for O=[N+]([O-])/N=C1\NCCN1Cc1ccc(Cl)nc1 [IMIDACLOPRID] ?
[reply] Satisfied

[ask] is_below(LC50, 200 µg/mL) for CC1(C)C(C=C(Cl)Cl)C1C(=O)OC(C#N)c1cccc(Oc2ccccc2)c1 (stereo not drawn) [ALPHA-CYPERMETHRIN] ?
[reply] Not satisfied

[ask] is_below(LC50, 200 µg/mL) for CCC/C=C1\OC(=O)c2ccccc21 [Z-butylidenephthalide] ?
[reply] Not satisfied

Next:
[ask] is_below(LC50, 200 µg/mL) for CC(C)(C)c1ccc(CSc2cnn(C(C)(C)C)c(=O)c2Cl)cc1 [PYRIDABEN] ?
[reply] Satisfied

[ask] is_below(LC50, 200 µg/mL) for CCCC[C@@H]1OC(=O)c2ccccc21 [(3S)-BUTYLPHTHALIDE] ?
[reply] Not satisfied

[ask] is_below(LC50, 200 µg/mL) for CCN(CC)c1nc(C)cc(OP(=S)(OC)OC)n1 [PIRIMIPHOS METHYL] ?
[reply] Satisfied

[ask] is_below(LC50, 200 µg/mL) for C/C(=N\C#N)N(C)Cc1ccc(Cl)nc1 [ACETAMIPRID] ?
[reply] Satisfied

[ask] is_below(LC50, 200 µg/mL) for CCC/C=C1\OC(=O)C2=C1CCC=C2 [LIGUSTILIDE] ?
[reply] Not satisfied

[ask] is_below(LC50, 200 µg/mL) for COP(=O)(OC)OC=C(Cl)Cl [DICHLORVOS] ?
[reply] Satisfied

[ask] is_below(LC50, 200 µg/mL) for CN1COCN(Cc2cnc(Cl)s2)/C1=N\[N+](=O)[O-] [THIAMETHOXAM] ?
[reply] Satisfied
